- System: PF0071 organoids
- assayOverview: PF0071 sensitivity screen (organoid dose response)
- Format: cell-based
- Design: key: Active: the analog typically with the lower IC50 value was identified as “active”; Inactive: the analog with the higher IC50 value was identified as “inactive.”
- studyConditions: optically pure enantiomers
observable: Activity (active or inactive)

Here is how some compounds turned out for Activity (active or inactive).
# compound, systemName, observed
records = [
    ("CO[C@@H]1CC[C@@H]2[C@H]1N(CC(C)C)C(=O)N2c1ccccc1 (stereo in doubt)", "PF0071 organoids", "Active"),
    ("CO[C@@H]1C=C[C@@H]2[C@H]1N(CC(C)C)C(=O)N2c1ccc(Cl)cc1 (stereo in doubt)", "PF0071 organoids", "Active"),
    ("CO[C@@H]1C=C[C@@H]2[C@H]1N(CC(C)C)C(=O)N2c1ccccc1 (stereo in doubt)", "PF0071 organoids", "Active"),
    ("CO[C@H]1C=C[C@H]2[C@@H]1N(CC(C)C)C(=O)N2c1ccccc1 (stereo in doubt)", "PF0071 organoids", "Inactive"),
    ("CO[C@H]1C=C[C@H]2[C@@H]1N(CC(C)C)C(=O)N2c1ccc(Cl)cc1 (stereo in doubt)", "PF0071 organoids", "Inactive"),
]

Here's the next entry for you.
So, CO[C@H]1CC[C@H]2[C@@H]1N(CC(C)C)C(=O)N2c1ccccc1 (stereo in doubt) ? Its Activity (active or inactive) was Inactive

---

- Tested on: PF0039 patient-derived organoid
- assayOverview: Patient-derived organoid viability screen, IC50
- Assay type: cell-based
- studyConditions: read-out: IC50 PF 0039
observable: pIC50
Answers are plain numbers, as −log10 of the molar value.

Some molecules with recorded pIC50:
# molecule, observed
records = [
    ("COC1C=CC2C1N(CC(C)C)C(=O)N2c1ccccc1 (racemic) [Compound E1]", 4.65),
    ("COC1C=CC2C1N(CC(C)C)C(=O)N2c1cccc(F)c1 (racemic) [E10(Rac)]", 5.09),
]

API: the following record is the query input.
Entry under test: COC1C=CC2C1N(CC(C)C)C(=O)N2c1ccc(F)cc1 (racemic) [E11(Rac)] . Its pIC50 was 4.55

---

- Tested on: PF0202 patient-derived organoid
- assayOverview: Patient-derived organoid viability screen, IC50
- Type: cell-based
- studyConditions: read-out: IC50 PF 0202
observable: IC50 (µM)
Give bare numbers, in µM.

Field: example entries. Status: answers known.
# compound, unitDescriptor, observed
data = [
    ("COC1CCC2C1N(CC(C)C)C(=O)N2c1ccccc1 (racemic) [E5(Rac)]", "µM", 16.5),
    ("COC1C=CC2C1N(CC(C)C)C(=O)N2c1ccccc1 (racemic) [Compound E1]", "µM", 55.4),
]

Switching to the query record.
IC50 recorded for this compound, COC1C=CC2C1N(CC(C)C)C(=O)N2c1cccc(F)c1 (racemic) [E10(Rac)] , is 36.9

---

I'd appreciate it if you could supply pIC50 values for the items below.
- System: PF0202 patient-derived organoid
- assayOverview: Patient-derived organoid viability screen, IC50
- Assay type: cell-based
- studyConditions: read-out: IC50 PF 0202
Give bare numbers, as −log10 of the molar value.

# compound, pIC50
records = [
    ("CCOC1C=CC2C1N(CC(C)C)C(=O)N2c1ccccc1 (racemic) [E4(Rac)]", 4.40),
    ("COC1C=CC2C1N(CC(C)C)C(=O)N2c1ccc(Cl)cc1 (racemic) [E8(Rac)]", 4.55),
    ("COC1C=CC2C1N(CC(C)C)C(=O)N2c1ccc(C)cc1 (racemic) [E12(Rac)]", 4.29),
    ("COC1C=CC2C1N(CC(C)C)C(=O)N2c1ccc(F)cc1 (racemic) [E11(Rac)]", 4.31),
    ("COC1C=CC2C1N(CC(C)C)C(=O)N2Cc1ccccc1 (racemic) [E6(Rac)]", 4.19),
]

COc1ccc(N2C(=O)N(CC(C)C)C3C(OC)C=CC32)cc1 (racemic) [E9(Rac)] has a reported pIC50 of 4.33
